# Tested on: HCC1569;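 further: TDF denotes transformed human dermal fibroblasts of mesenchymal origin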
# Assay Remarks: cell number relative to DMSO (% of DMSO); higher = more cells (less growth inhibition / toxicity)
# Protocol Conditions: concentration: 10 µM; 24 h
Test Readout: cell number

>>> endpoint_value("Cc1onc(-c2ccccc2)c1C(=O)NC1C(=O)N2C1SC(C)(C)C2C(=O)[O-] (stereo unspecified) [Oxacillin]")
99.8
>>> endpoint_value("O=C1OC(=CBr)CCC1c1cccc2ccccc12 (stereo unspecified) [Bromoenol lactone]")
97.3
>>> endpoint_value("NC(=O)N1c2ccccc2CC(=O)c2ccccc21 [Oxcarbazepine]")
103
>>> endpoint_value("CN(C)CCCN1c2ccccc2CCc2ccccc21.Cl [Imipramine.HCl]")
100
>>> endpoint_value("CC(=O)CC/C=C(\\C)CC/C=C(\\C)CC/C=C(\\C)CCC=C(C)C")
100
>>> endpoint_value("Nc1ccccc1NC(=O)CCCCCCC(=O)Nc1ccccc1 [N~1~-(2-aminophenyl)-N~8~-phenyloctanediamide]")
98.8

Cited source: the supplement of paper PMC7156485
